Numbers sourced from patent US20230233569A1.

target: KRAS G12D (Homo sapiens, UniProt P01116+P62937, G12D); assay: Disruption of BRAF RBD interaction with Ras (FRET / MOA assay, with Cyclophilin A); type: biochemical; conditions: read-out: KRAS G12D FRET data, IC50
Sequence (P01116 1-169 isoform P01116-2 G12D limits assumed): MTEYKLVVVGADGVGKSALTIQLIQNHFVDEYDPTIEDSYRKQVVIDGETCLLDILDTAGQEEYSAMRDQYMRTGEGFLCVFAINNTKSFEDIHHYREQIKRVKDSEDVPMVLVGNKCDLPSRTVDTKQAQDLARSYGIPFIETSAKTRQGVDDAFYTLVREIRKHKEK
Sequence (P62937 whole entry): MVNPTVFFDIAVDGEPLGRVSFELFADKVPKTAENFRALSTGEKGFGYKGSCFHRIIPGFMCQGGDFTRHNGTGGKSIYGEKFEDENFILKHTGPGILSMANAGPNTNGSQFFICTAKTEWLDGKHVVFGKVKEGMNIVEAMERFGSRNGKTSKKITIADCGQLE
pIC50: −log10 of the molar value.
measurementLabel: pIC50

1) CCn1c(-c2cccnc2[C@H](C)OC)c2c3cc(ccc31)-c1cc(O)cc(c1)C[C@H](NC(=O)[C@H](C(C)C)N(C)C(=O)[C@H]1CCN(C)C1)C(=O)N1CCC[C@H](N1)C(=O)OCC(C)(C)C2: 7.00 to 8.00
2) C=CC(=O)N1CCOC2(CCN(C(=O)N(C)[C@H](C(=O)N[C@H]3Cc4cccc(c4)-c4ccc5c(c4)c(c(-c4cccnc4[C@H](C)OC)n5CC(F)(F)F)CC(C)(C)COC(=O)C4CCCN(N4)C3=O)C(C)C)CC2)C1 (stereo partly drawn): 6.00 to 7.00
3) CCn1c(-c2cccnc2[C@H](C)OC)c2c3cc(ccc31)-c1cc(O)cc(c1)C[C@H](NC(=O)[C@H](C(C)C)N(C)C(=O)C1(C#N)CC1)C(=O)N1CCC[C@H](N1)C(=O)OCC(C)(C)C2 (racemic): 7.00 to 8.00
4) CCn1c(-c2cccnc2[C@H](C)OC)c2c3cc(ccc31)-c1cc(O)cc(c1)C[C@H](NC(=O)[C@H](C(C)C)N(C)C(=O)[C@H]1CCN(C(=O)[C@@H]3CCCN3C)C1)C(=O)N1CCC[C@H](N1)C(=O)OCC(C)(C)C2: 7.00 to 8.00
5) CCn1c(-c2cccnc2[C@H](C)OC)c2c3cc(ccc31)-c1csc(n1)C[C@H](NC(=O)[C@H](C(C)C)N(C)C(=O)[C@H]1CCN(C(=O)CN)C1)C(=O)N1CCC[C@H](N1)C(=O)OCC(C)(C)C2: 6.00 to 7.00
6) CCn1c(-c2cccnc2[C@H](C)OC)c2c3cc(ccc31)-c1csc(n1)C[C@H](NC(=O)[C@H](C(C)C)N(C)C(=O)N1CC(N(C)C(=O)C#CC(C)(C)N3CCC3)C1)C(=O)N1CCC[C@H](N1)C(=O)OCC(C)(C)C2: 5.00 to 6.00
7) CCn1c(-c2cccnc2[C@H](C)OC)c2c3cc(ccc31)-c1csc(n1)C[C@H](NC(=O)[C@H](C(C)C)N(C)C(=O)N1CC[C@@]3(CCN(C)C3=O)C1)C(=O)N1CCC[C@H](N1)C(=O)OCC(C)(C)C2 (single isomer, unassigned): 5.00 to 6.00
8) CCn1c(-c2cnccc2COC)c2c3cc(ccc31)-c1cc(O)cc(c1)C[C@H](NC(=O)[C@H](C(C)C)N(C)C(=O)[C@@H]1CCOC1)C(=O)N1CCC[C@H](N1)C(=O)OCC(C)(C)C2: 5.00 to 6.00
9) CCn1c(-c2cccnc2[C@H](C)OC)c2c3cc(ccc31)-c1csc(n1)C[C@H](NC(=O)[C@H](C(C)C)N(C)C(=O)N1CC[C@H]1C(=O)NC)C(=O)N1CC(C)C[C@H](N1)C(=O)OCC(C)(C)C2 (stereo partly drawn): 5.00 to 6.00
10) CCn1c(-c2cccnc2[C@H](C)OC)c2c3cc(ccc31)-c1csc(n1)C[C@H](NC(=O)[C@H](C(C)C)N(C)C(=O)N1CCN(C)CC1)C(=O)N1CCC[C@H](N1)C(=O)OCC(C)(C)C2: 5.00 to 6.00
11) CCn1c(-c2cccnc2[C@H](C)OC)c2c3cc(ccc31)-c1cc(O)cc(c1)C[C@H](NC(=O)[C@H](C(C)C)N(C)C(=O)[C@H]1CCCN[C@@H]1C)C(=O)N1CCC[C@H](N1)C(=O)OCC(C)(C)C2: 7.00 to 8.00
12) CCn1c(-c2cccnc2[C@H](C)OC)c2c3cc(ccc31)-c1csc(n1)C[C@H](NC(=O)[C@H](C(C)C)N(C)C(=O)N1CCOCC1)C(=O)N1CCC[C@H](N1)C(=O)OCC(C)(C)C2 (atropisomer, axis not shown): 6.00 to 7.00

###

target: NRAS Q61K (Homo sapiens, UniProt P01111+P62937, Q61K); experiment: Ras-Raf disruption / FRET / MOA assay (BRAF RBD); type: biochemical; conditions: NRAS Q61K; read-out: NRAS Q61K FRET data IC50
Sequence (P01111 whole entry Q61K): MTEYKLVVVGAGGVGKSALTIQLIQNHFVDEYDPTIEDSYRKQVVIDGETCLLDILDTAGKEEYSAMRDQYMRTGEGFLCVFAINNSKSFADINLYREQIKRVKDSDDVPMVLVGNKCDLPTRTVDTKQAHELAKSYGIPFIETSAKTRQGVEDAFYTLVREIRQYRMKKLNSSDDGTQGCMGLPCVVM
Sequence (P62937 whole entry): as the sequence (P62937 whole entry) above
pIC50: −log10 of the molar value.
Each entry below carries its recorded pIC50.
measurementLabel: pIC50

1) CCn1c(-c2cccnc2[C@H](C)OC)c2c3cc(ccc31)-c1csc(n1)C[C@H](NC(=O)[C@H](C(C)C)N(C)C(=O)N1CC[C@H](N(C)C(=O)[C@H]3CN3)C1)C(=O)N1CCC[C@H](N1)C(=O)OCC(C)(C)C2 (atropisomer, axis not shown): 7.00 to 8.00
2) CCOC(=O)[C@H]1O[C@@H]1C(=O)N1CC[C@H](C(=O)N(C)[C@H](C(=O)N[C@H]2Cc3cc(O)cc(c3)-c3ccc4c(c3)c(c(-c3cccnc3[C@H](C)OC)n4CC)CC(C)(C)COC(=O)[C@@H]3CCCN(N3)C2=O)C(C)C)C1: 7.00 to 8.00
3) CCn1c(-c2cccnc2[C@H](C)OC)c2c3cc(ccc31)-c1cc(O)cc(c1)C[C@H](NC(=O)[C@H](C(C)C)N(C)C(=O)[C@H]1C[C@H](NC(=O)[C@@H]3CN3)C1)C(=O)N1CCC[C@H](N1)C(=O)OCC(C)(C)C2: 7.00 to 8.00
4) CCn1c(-c2cccnc2[C@H](C)OC)c2c3cc(ccc31)-c1csc(n1)C[C@H](NC(=O)[C@H](C(C)C)N(C)C(=O)N1CCN(C(=O)[C@H]3CN3)[C@@H](C)C1)C(=O)N1CCC[C@H](N1)C(=O)OCC(C)(C)C2: 7.00 to 8.00
5) CCn1c(-c2cccnc2[C@H](C)OC)c2c3cc(ccc31)-c1csc(n1)C[C@H](NC(=O)[C@H](C(C)C)N(C)C(=O)N1CCN(C(=O)[C@H]3CN3)C[C@H]1C)C(=O)N1CCC[C@H](N1)C(=O)OCC(C)(C)C2: 7.00 to 8.00
6) CCn1c(-c2cccnc2[C@H](C)OC)c2c3cc(ccc31)-c1cc(O)cc(c1)C[C@H](NC(=O)[C@H](C(C)C)N(C)C(=O)[C@@H]1CCN(C(=O)[C@H]3CN3)[C@@H]1C)C(=O)N1CCC[C@H](N1)C(=O)OCC(C)(C)C2 (atropisomer, axis not shown): 6.00 to 7.00
7) CCn1c(-c2cccnc2[C@H](C)OC)c2c3cc(ccc31)-c1cc(O)cc(c1)C[C@H](NC(=O)[C@H](C(C)C)N(C)C(=O)N1CC[C@H](N(C)C(=O)[C@H]3CN3)C1)C(=O)N1CCC[C@H](N1)C(=O)OCC(C)(C)C2 (atropisomer, axis not shown): 6.00 to 7.00
8) CCn1c(-c2cccnc2[C@H](C)OC)c2c3cc(ccc31)-c1cccc(c1)C[C@H](NC(=O)[C@H](C1CCCC1)N1CC[C@]3(CCN(C(=O)[C@@H]4N[C@@H]4C4CC4)C3)C1=O)C(=O)N1CCC[C@H](N1)C(=O)OCC(C)(C)C2: 5.00 to 6.00
9) CCn1c(-c2cccnc2[C@H](C)OC)c2c3cc(ccc31)-c1cc(O)cc(c1)C[C@H](NC(=O)[C@H](C(C)C)N(C)C(=O)N1CC[C@H](N(C)C(=O)[C@@H]3CN3)C1)C(=O)N1CCC[C@H](N1)C(=O)OCC(C)(C)C2 (atropisomer, axis not shown): 6.00 to 7.00
10) CCn1c(-c2cccnc2[C@H](C)OC)c2c3cc(ccc31)-c1csc(n1)C[C@H](NC(=O)[C@H](C(C)C)N(C)C(=O)N1CC[C@@H](N(C)C(=O)[C@H]3CN3)C1)C(=O)N1CCC[C@H](N1)C(=O)OCC(C)(C)C2 (atropisomer, axis not shown): 6.00 to 7.00
11) CCn1c(-c2cccnc2[C@H](C)OC)c2c3cc(ccc31)-c1cc(O)cc(c1)C[C@H](NC(=O)[C@H](C(C)C)N(C)C(=O)[C@H]1CCN(C(=O)C3OC3c3ccccc3)C1)C(=O)N1CCC[C@H](N1)C(=O)OCC(C)(C)C2 (stereo partly shown): 6.00 to 7.00
12) CCn1c(-c2cccnc2[C@H](C)OC)c2c3cc(ccc31)-c1cc(O)cc(c1)C[C@H](NC(=O)[C@H](C(C)C)N(C)C(=O)N1CCN(C(=O)[C@@H]3CN3)CC1=O)C(=O)N1CCC[C@H](N1)C(=O)OCC(C)(C)C2 (atropisomer, axis not shown): 6.00 to 7.00
13) CCn1c(-c2cccnc2[C@H](C)OC)c2c3cc(ccc31)-c1csc(n1)C[C@H](NC(=O)[C@H](C(C)C)N(C)C(=O)N1CCC[C@H](N(C)C(=O)[C@@H]3CN3)C1)C(=O)N1CCC[C@H](N1)C(=O)OCC(C)(C)C2 (atropisomer, axis not shown): 6.00 to 7.00
